The reported measurements were obtained from patent US9453014B2.

System: human full length HSD11 β 1 (Homo sapiens, UniProt P28845)
Construct: transient expression of human full length HSD11 β 1 expression vector; host or cells: CHO cells (transient transfection)
Sequence (P28845 whole entry): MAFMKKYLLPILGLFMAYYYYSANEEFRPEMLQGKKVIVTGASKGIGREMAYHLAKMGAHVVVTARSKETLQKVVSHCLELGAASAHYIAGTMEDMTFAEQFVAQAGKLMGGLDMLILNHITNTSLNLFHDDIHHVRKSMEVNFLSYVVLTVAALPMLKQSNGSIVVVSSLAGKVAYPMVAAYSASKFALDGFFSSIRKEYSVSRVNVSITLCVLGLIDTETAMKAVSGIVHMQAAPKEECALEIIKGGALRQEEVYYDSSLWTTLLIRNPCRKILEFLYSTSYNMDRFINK
Test summary: In Vitro HSD11β1 Inhibition Assay
Assay type: cell-based
Stated conditions: CHO cells transiently expressing human HSD11β1; 200 nM cortisone+500 uM NADPH overnight; cortisone to cortisol by LC/MS-MS; read-out: 11βHSD1 (IC50)
Assignment: determine reported IC50 for the given compounds.

Tested on human full length HSD11 β 1 (Homo sapiens, UniProt P28845), the item CC(CC(=O)N1CCC(C(=O)O)C2CCCCC21)c1c[nH]c2nccc(Cl)c12 (centres unmarked) showed IC50 equal to > 0.25 µM

Tested on human full length HSD11 β 1 (Homo sapiens, UniProt P28845), the item CC(CC(=O)N1CCCC2(C)CCCCC12)c1cn(C)c2ccccc12 (centres unmarked) showed IC50 equal to > 0.25 µM

Tested on human full length HSD11 β 1 (Homo sapiens, UniProt P28845), the item Cn1cc(C(C)(C)CC(=O)N2CCOC3CCCCC32)c2ccccc21 (centres unmarked) showed IC50 equal to 0.15 to 0.2 µM

Tested on human full length HSD11 β 1 (Homo sapiens, UniProt P28845), the item Cn1nc(CCC(=O)N2CCCC3C(C(=O)O)CCCC32)c2c(C3CC3)cccc21 (centres unmarked) showed IC50 equal to > 0.25 µM

Tested on human full length HSD11 β 1 (Homo sapiens, UniProt P28845), the item CC(CC(=O)N1CCCC2C(C(=O)NCC(=O)O)CCCC21)c1c[nH]c2cccc(C3CC3)c12 (centres unmarked) showed IC50 equal to > 0.25 µM

Tested on human full length HSD11 β 1 (Homo sapiens, UniProt P28845), the item O=C(O)C1CCN(C(=O)CC(c2ccccc2)c2c[nH]c3cc(F)ccc23)C2CCCCC12 (single isomer, unassigned) [Example 159] showed IC50 equal to < 0.1 µM

Tested on human full length HSD11 β 1 (Homo sapiens, UniProt P28845), the item CC(CC(=O)N1CCCC2C(C(=O)O)CCCC21)c1c[nH]c2cccc(Cl)c12 (centres unmarked) showed IC50 equal to 0.1 to 0.15 µM

Tested on human full length HSD11 β 1 (Homo sapiens, UniProt P28845), the item CC(CC(=O)N1CCCC2C(C(=O)O)CCCC21)c1c[nH]c2cccc(-c3ccc(F)cc3)c12 (centres unmarked) [Compound 243] showed IC50 equal to < 0.1 µM

Tested on human full length HSD11 β 1 (Homo sapiens, UniProt P28845), the item O=C(CCc1cn(S(=O)(=O)c2ccccc2)c2ncccc12)N1CCCC2CCCCC21 (centres unmarked) showed IC50 equal to > 0.25 µM

Tested on human full length HSD11 β 1 (Homo sapiens, UniProt P28845), the item CC(CC(=O)N1CCC(O)C2CCCCC21)c1c[nH]c2ccccc12 (centres unmarked) showed IC50 equal to > 0.25 µM

Tested on human full length HSD11 β 1 (Homo sapiens, UniProt P28845), the item CC(CC(=O)N1C(C)CCC2C(C(=O)O)CCCC21)c1c[nH]c2cccc(C3CC3)c12 (centres unmarked) showed IC50 equal to 0.15 to 0.2 µM

Tested on human full length HSD11 β 1 (Homo sapiens, UniProt P28845), the item CC(CC(=O)N1CCCC2CCCCC21)c1c[nH]c2ccccc12 (single isomer, unassigned) [Example 120] showed IC50 equal to < 0.1 µM

Tested on human full length HSD11 β 1 (Homo sapiens, UniProt P28845), the item O=C(CC(O)(c1c[nH]c2ccccc12)C(F)(F)F)N1CCCC2CCCCC21 (centres unmarked) showed IC50 equal to > 0.25 µM

Tested on human full length HSD11 β 1 (Homo sapiens, UniProt P28845), the item O=C(CCc1c[nH]c2ccccc12)N1CCC2CCCCC2C1 (centres unmarked) showed IC50 equal to > 0.25 µM

* * *

Assignment: determine reported IC50 for the given compounds.
System: human full length HSD11 β 1 (Homo sapiens, UniProt P28845)
Construct: transient expression of human full length HSD11 β 1 expression vector; host or cells: CHO cells (transient transfection)
Test summary: In Vitro HSD11β1 Inhibition Assay
Assay type: cell-based
Stated conditions: CHO cells transiently expressing human HSD11β1; 200 nM cortisone+500 uM NADPH overnight; cortisone to cortisol by LC/MS-MS; read-out: 11βHSD1 (IC50)

Recorded IC50 (compound O=C(Cc1c[nH]c2ccccc12)N1CCCC2CCCCC21 (stereo not shown) ): 200 to 250 nM

Recorded IC50 (compound CC1CC2CCCCC2N1C(=O)CCc1c[nH]c2ccccc12 (stereo not shown) ): > 250 nM

Recorded IC50 (compound O=C(CCc1c[nH]c2ccc(O)cc12)N1CCCC2CCCCC21 (stereo not shown) ): 100 to 150 nM

Recorded IC50 (compound O=C(O)C1CCC2CCCCC2N1C(=O)CC(c1cccs1)c1c[nH]c2cccc(F)c12 (stereo not shown) ): > 250 nM

* * *

Assignment: determine reported pIC50 for the given compounds.
System: human full length HSD11 β 1 (Homo sapiens, UniProt P28845)
Construct: transient expression of human full length HSD11 β 1 expression vector; host or cells: CHO cells (transient transfection)
Test summary: In Vitro HSD11β1 Inhibition Assay
Format: cell-based
Stated conditions: CHO cells transiently expressing human HSD11β1; 200 nM cortisone+500 uM NADPH overnight; cortisone to cortisol by LC/MS-MS; read-out: 11βHSD1 (IC50)
pIC50: −log10 of the molar value.

Recorded pIC50 (compound Cc1cccc2[nH]cc(C(C)CC(=O)N3CCCC4(O)CCCCC34)c12 (stereo not drawn) [Example 132] ): 6.70 to 6.82

Recorded pIC50 (compound CC(CC(=O)N1CCC(C(=O)O)C2CCCCC21)c1c[nH]c2ncccc12 (stereo not drawn) [Example 165] ): < 6.60

Recorded pIC50 (compound CC(CC(=O)N1CCOC2CCCCC21)c1c[nH]c2cccc(F)c12 (single isomer, unassigned) [Example 137] ): 6.82 to 7.00

Recorded pIC50 (compound CC(C)C(CC(=O)N1CCC(C(=O)O)C2CCCCC21)c1c[nH]c2ccccc12 (stereo not drawn) [Example 105] ): < 6.60

Recorded pIC50 (compound CC(CC(=O)N1CCCC2CCCCC21)c1c[nH]c2cccc(N3CCC(C(=O)O)CC3)c12 (stereo not drawn) [Compound 202] ): < 6.60

Recorded pIC50 (compound CC(CC(=O)N1CCCC2C(C(=O)O)CCCC21)c1c(C#N)[nH]c2cccc(C3CC3)c12 (stereo not drawn) [Compound 252] ): < 6.60

Recorded pIC50 (compound CC(CC(=O)N1CCCC2C1CCCC2(C)C(=O)O)c1c[nH]c2cccc(C3CC3)c12 (stereo not drawn) [Compound 237] ): 6.70 to 6.82

Recorded pIC50 (compound Cc1ccc(-c2cccc3[nH]cc(C(C)CC(=O)N4CCCC5C(C(=O)O)CCCC54)c23)o1 (stereo not drawn) [Compound 236] ): 6.82 to 7.00

Recorded pIC50 (compound O=C(CCc1c[nH]c2ccccc12)N1CC2CCCCC2C1 (stereo not drawn) [Compound 42] ): < 6.60

Recorded pIC50 (compound CC(CC(=O)N1CCCC2C(C(=O)O)CCCC21)c1c[nH]c2cccc(-c3ccccn3)c12 (stereo not drawn) [Compound 238] ): < 6.60

Recorded pIC50 (compound Cc1cccc2c1c(CCC(=O)N1CCOC3CCCCC31)cn2C (stereo not drawn) [Compound 60] ): > 7.00

Recorded pIC50 (compound CC(C)C(CC(=O)N1CCCC2CCCCC21)c1c[nH]c2ccccc12 (single isomer, unassigned) [Example 117] ): > 7.00

Recorded pIC50 (compound CC12CCCCC1N(C(=O)CCn1nnc3ccccc31)CCC2 (stereo not drawn) [Example 90] ): 6.82 to 7.00

Recorded pIC50 (compound O=C(O)C1CCN(C(=O)CC(c2ccc(F)cc2)c2c[nH]c3cccc(F)c23)C2CCCCC12 (stereo not drawn) [Example 157] ): > 7.00

Recorded pIC50 (compound COc1cccc2[nH]cc(C(C)CC(=O)N3CCCC4C(C(=O)O)CCCC43)c12 (stereo not drawn) [Compound 264] ): < 6.60

Recorded pIC50 (compound CC1CCC2CCCCC2N1C(=O)CCc1c[nH]c2ncccc12 (stereo not drawn) [Example 86] ): > 7.00

Recorded pIC50 (compound COC(=O)C1CCN(C(=O)CC(C)c2c[nH]c3ccccc23)C2CCCCC12 (stereo not drawn) [Example 102] ): < 6.60

Recorded pIC50 (compound O=C(O)C1CCC2CCCCC2N1C(=O)CC(c1ccccc1)c1c[nH]c2cc(F)ccc12 (stereo not drawn) [Example 174] ): < 6.60

* * *

Assignment: determine reported pIC50 for the given compounds.
System: human full length HSD11 β 1 (Homo sapiens)
Construct: transient expression of human full length HSD11 β 1 expression vector; host or cells: CHO cells (transient transfection)
Test summary: In Vitro HSD11β1 Inhibition Assay
Type: cell-based
Stated conditions: CHO cells transiently expressing human HSD11β1; 200 nM cortisone+500 uM NADPH overnight; cortisone to cortisol by LC/MS-MS; read-out: 11βHSD1 (IC50)
Experimental: In Vitro HSD11β1 Inhibition Assay: CHO cells were maintained in Dulbecco's modified Eagle's medium/nutrient mixture F-12 containing 5% fetal bovine serum (v/v) and 2 mM glutamine. Cells were cultured at 37° C. with 5% CO2. […] The enzymatic activity or inhibition of enzyme activity was measured by estimating the conversion of cortisone to cortisol by LC/MS-MS method. The IC50 in nM was calculated from an 8 point log scale of concentration versus inhibition.
pIC50: −log10 of the molar value.

Recorded pIC50 (compound O=C(CS(=O)(=O)c1c[nH]c2ccccc12)N1CCCC2CCCCC21 (stereo not drawn) [Compound 57] ): < 6.60

Recorded pIC50 (compound CC(=O)NC(Cc1c[nH]c2ccccc12)C(=O)N1CCCC2CCCCC21 (stereo not drawn) [Example 96] ): < 6.60

Recorded pIC50 (compound CC(CC(=O)N1CCC[C@H]2[C@H](C(=O)O)CCC[C@@H]21)c1c[nH]c2cccc(C3CC3)c12 (single isomer, unassigned) [Compound 199] ): > 7.00
